- target system: T1, His-tagged CEACAM1 (human, UniProt P13688 35-428)
- T1 construct: 45 kDa SPR analyte; also called CEACAM1-HIS; CEACAM1 analyte
- T1 sequence: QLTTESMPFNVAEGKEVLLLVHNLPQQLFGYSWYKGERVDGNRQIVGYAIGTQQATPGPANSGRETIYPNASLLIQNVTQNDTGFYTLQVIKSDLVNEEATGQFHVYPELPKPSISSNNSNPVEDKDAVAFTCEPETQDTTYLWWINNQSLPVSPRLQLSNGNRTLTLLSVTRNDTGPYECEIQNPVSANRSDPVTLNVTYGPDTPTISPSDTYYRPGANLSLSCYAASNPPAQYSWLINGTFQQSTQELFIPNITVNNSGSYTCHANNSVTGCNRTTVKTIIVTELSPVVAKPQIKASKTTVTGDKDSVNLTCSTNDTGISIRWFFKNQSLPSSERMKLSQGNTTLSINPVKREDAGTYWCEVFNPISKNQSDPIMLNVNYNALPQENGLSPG
- assay name: SPR single-cycle, IgG captured
property measured: relative KD to VH0/Vκ0
API note: the answer field is a bare number with no unit suffix.

The examples below pair each entry with its known result.
Challenge: I would be grateful if you could share the reported relative KD to VH0/Vκ0 for VH4/Vκ2 (antibody, IgG4, V domains shown, IgG4 (S241P), kappa) VH: EVQLLESGGGLVQPGGSLRLSCAASGFIFSSHGMSWVRQAPGKGLEWVSTISSGGTYTYYADSVKGRFTISRDNSKNTLYLQMNSLRAEDTAVYYCARHDFDYDAAWFAYWGQGTLVTVSS VL: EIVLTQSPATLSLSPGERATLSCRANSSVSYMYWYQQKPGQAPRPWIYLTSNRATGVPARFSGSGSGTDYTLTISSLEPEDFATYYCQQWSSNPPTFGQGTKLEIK .
Response given: 1.8

Challenge: May I ask what relative KD to VH0/Vκ0 has been recorded for VH4/Vκ1 (antibody, IgG4, V domains shown, IgG4 (S241P), kappa) VH: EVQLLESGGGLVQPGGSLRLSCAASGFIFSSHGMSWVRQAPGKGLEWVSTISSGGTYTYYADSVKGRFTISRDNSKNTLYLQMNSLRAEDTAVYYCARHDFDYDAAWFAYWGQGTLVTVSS VL: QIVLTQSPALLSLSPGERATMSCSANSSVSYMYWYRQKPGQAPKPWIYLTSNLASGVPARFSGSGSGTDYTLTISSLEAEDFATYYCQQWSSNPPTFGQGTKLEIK ?
Response given: 2.4

Could you now consider this next binder?
Challenge: Find the recorded relative KD to VH0/Vκ0 belonging to VH3/Vκ2 (antibody, IgG4, V domains shown, IgG4 (S241P), kappa) VH: EVQLLESGGGLVQPGGSLRLSCAASGFIFSSHGMSWVRQAPGKGLEWVATISSGGTYTYYADSVKGRFTISRDNSKNTLYLQMNSLRAEDTAMYYCARHDFDYDAAWFAYWGQGTLVTVSS VL: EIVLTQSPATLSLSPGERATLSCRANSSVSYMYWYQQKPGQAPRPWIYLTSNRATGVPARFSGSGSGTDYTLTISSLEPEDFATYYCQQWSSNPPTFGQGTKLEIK and report it.
Response given: 2.5
